The measured values listed here are drawn from patent US20240124469A1.

Catalogue of IC50 readings, one per entry.
- measured-target: PIM2 (Homo sapiens (Human), UniProt Q9P1W9)
- Sequence (Q9P1W9 whole entry): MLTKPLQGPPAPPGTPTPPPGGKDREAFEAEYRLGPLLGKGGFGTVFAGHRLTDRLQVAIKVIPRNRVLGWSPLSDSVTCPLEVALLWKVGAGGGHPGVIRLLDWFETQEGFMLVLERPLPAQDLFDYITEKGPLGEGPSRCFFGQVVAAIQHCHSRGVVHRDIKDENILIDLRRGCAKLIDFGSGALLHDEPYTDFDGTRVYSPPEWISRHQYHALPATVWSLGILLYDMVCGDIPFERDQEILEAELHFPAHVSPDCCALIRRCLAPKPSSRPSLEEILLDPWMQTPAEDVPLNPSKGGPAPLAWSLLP
- method-description: PIM2 kinase activity test (Mobility shift assay)
- Assay type: biochemical

>>> result("O[C@H]1CCC[C@@H](Nc2ccc3ncc(-c4cccc(C(F)(F)F)c4)n3n2)CC1 (relative stereo)")
"> 10000 nM"

May I ask what IC50 has been recorded for CN1CCC2(CC1)CC(Nc1ccc3ncc(-c4cccc(C(F)(F)F)c4)n3n1)C2 ?
1000 to 10000 nM

May I ask what IC50 has been recorded for OC[C@@H]1CC[C@@H](Nc2ccc3ncc(-c4ccc(C(F)(F)F)s4)n3n2)CO1 ?
1000 to 10000 nM

May I ask what IC50 has been recorded for CC(C)(O)[C@H]1CC[C@H](Nc2ccc3ncc(-c4ccc(C(F)(F)F)s4)n3n2)CC1 ?
100 to 1000 nM

May I ask what IC50 has been recorded for CC(C)(O)[C@H]1CC[C@H](Nc2ccc3nc(C#N)c(-c4cccc(C(F)(F)F)c4)n3n2)CC1 ?
> 10000 nM

May I ask what IC50 has been recorded for FC(F)(F)c1cccc(-c2cnc3ccc(NC4CC5(CCNC5)C4)nn23)c1 (stereo not shown) ?
1000 to 10000 nM

May I ask what IC50 has been recorded for FC(F)(F)c1ccc(-c2cnc3ccc(NC4CC5(CCNCC5)C4)nn23)s1 ?
100 to 1000 nM

May I ask what IC50 has been recorded for FC(F)(F)c1ccc(-c2cnc3ccc(NC4CCCNCC4)nn23)s1 (stereo not shown) ?
100 to 1000 nM

May I ask what IC50 has been recorded for O[C@@H]1CCC[C@@H](Nc2ccc3ncc(-c4cccc(C(F)(F)F)c4)n3n2)CC1 ?
1000 to 10000 nM

May I ask what IC50 has been recorded for OC[C@H]1CC[C@H](Nc2ccc3ncc(-c4ccc(C(F)(F)F)s4)n3n2)CO1 ?
> 10000 nM

----------
- measured-target: PIM1 (Homo sapiens (Human))
- Sequence (P11309 whole entry): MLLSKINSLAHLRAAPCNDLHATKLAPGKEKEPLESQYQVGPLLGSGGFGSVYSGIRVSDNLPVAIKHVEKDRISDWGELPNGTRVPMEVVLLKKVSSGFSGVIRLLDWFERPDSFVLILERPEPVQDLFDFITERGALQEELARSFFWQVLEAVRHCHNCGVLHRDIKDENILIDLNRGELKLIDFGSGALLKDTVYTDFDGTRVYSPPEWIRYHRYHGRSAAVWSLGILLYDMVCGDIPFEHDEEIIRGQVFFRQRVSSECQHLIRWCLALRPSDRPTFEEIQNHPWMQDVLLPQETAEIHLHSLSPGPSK
- method-description: PIM1 kinase activity test (Mobility shift assay)
- Format: biochemical
assay-metric: IC50

Some solved cases for reference:
>>> result("O[C@H]1CCC[C@@H](Nc2ccc3ncc(-c4cccc(C(F)(F)F)c4)n3n2)CC1 (relative stereo)")
"100 to 1000 nM"
>>> result("CN1CCC(CNc2ccc3ncc(-c4cccc(N(C)C)c4)n3n2)CC1")
"100 to 1000 nM"
>>> result("O[C@H]1CCCC[C@@H](Nc2ccc3ncc(-c4cccc(C(F)(F)F)c4)n3n2)C1")
"100 to 1000 nM"

// switching to the query molecule
May I ask what IC50 has been recorded for CN1CCCC(Nc2ccc3ncc(-c4cccc(C(F)(F)F)c4)n3n2)CC1 (stereo not shown) ?
10 to 100 nM

----------
Catalogue of IC50 readings, one per entry.
- measured-target: PIM2 (Homo sapiens (Human), UniProt Q9P1W9)
- method-description: PIM2 kinase activity test (Mobility shift assay)
- Format: biochemical

Some solved cases for reference:
>>> result("CC(C)(O)[C@H]1CC[C@H](Nc2ccc3ncc(-c4cccc(-c5ccco5)c4)n3n2)CC1 [Compound 48]")
"> 10000 nM"
>>> result("O[C@@H]1CCCC[C@@H](Nc2ccc3ncc(-c4cccc(C(F)(F)F)c4)n3n2)C1 [Compound 44]")
"> 10000 nM"
>>> result("CC(C)(O)[C@H]1CC[C@H](Nc2ccc3nc(C(=O)O)c(-c4cccc(C(F)(F)F)c4)n3n2)CC1 [Compound 42]")
"> 10000 nM"
>>> result("FC(F)(F)c1cccc(-c2cnc3ccc(NC4CCCNCC4)nn23)c1 (stereo not drawn) [Compound 19]")
"100 to 1000 nM"

May I ask what IC50 has been recorded for CC(C)(O)[C@H]1CC[C@H](Nc2ccc3ncc(-c4nccs4)n3n2)CC1 [Compound 17] ?
100 to 1000 nM

May I ask what IC50 has been recorded for FC(F)(F)c1cccc(-c2cnc3ccc(NC4CC5(CCN(C6CC6)CC5)C4)nn23)c1 [Compound 30] ?
> 10000 nM
